# System: SNB-19 CNS
# Procedure Summary: NCI tumour cell line growth inhibition, 48 h
The entries below come with measured TGI values attached.
Observed Property: TGI (µM)

compound=C/C(=N/NC(=S)Nc1ccccc1C)c1ccccn1 tgt="SNB-19 CNS" observed_property=TGI readout_unit=µM modifier== test_value=54.8
compound="COc1cc(Br)cc2c1O[C@H]1C(=O)CC3CC21CCN3C (stereo partly specified)" tgt="SNB-19 CNS" observed_property=TGI readout_unit=µM modifier=> test_value=100
compound=CCOC(=O)Cc1csc(Nc2nc(O)c(C3=c4ccccc4=NC3=O)s2)n1 tgt="SNB-19 CNS" observed_property=TGI readout_unit=µM modifier=> test_value=100
compound=COc1cc2c3c(n(CCCNC(C)(C)CO)c(=O)c2cc1OC)-c1cc2c(cc1C3=O)OCO2 tgt="SNB-19 CNS" observed_property=TGI readout_unit=µM modifier=> test_value=61.2
compound=CCOC(=O)c1sc(Nc2cc(Cl)ccc2Cl)nc1C tgt="SNB-19 CNS" observed_property=TGI readout_unit=µM modifier=> test_value=100
compound=Cc1ccc(C)c(N2C(=O)C(=O)C(c3nc4ccccc4s3)C(=O)C2=O)c1 tgt="SNB-19 CNS" observed_property=TGI readout_unit=µM modifier=> test_value=100
compound=COc1ccc(-c2nnc3c4ccccc4sn23)cc1 tgt="SNB-19 CNS" observed_property=TGI readout_unit=µM modifier=> test_value=100
compound=N#C/C(=C\c1ccc([N+](=O)[O-])cc1)n1nnc2cc(F)c(F)cc21 tgt="SNB-19 CNS" observed_property=TGI readout_unit=µM modifier== test_value=10.4
compound=CN1CCN(C(=O)OCc2nc3c(N4CCOCC4)nc(-c4ccccc4)nc3n2C)CC1 tgt="SNB-19 CNS" observed_property=TGI readout_unit=µM modifier== test_value=2.78
compound="NCCSC1(O)C(=O)c2ccccc2-c2ccccc21 (stereo unspecified)" tgt="SNB-19 CNS" observed_property=TGI readout_unit=µM modifier== test_value=2.86
compound="C=CC(Br)(CBr)CCC1OC1(C)C (stereo unspecified)" tgt="SNB-19 CNS" observed_property=TGI readout_unit=µM modifier== test_value=32.7

----------
# System: HT29 colon
# Procedure Summary: NCI tumour cell line growth inhibition, 48 h
Recorded TGI, one value per entry.
Observed Property: TGI

compound_string=O=C(NC/C=C/CO)c1ccccc1 tgt="HT29 colon" test_value="> 100 µM"
compound_string=[N-]=[N+]=NCC(=O)c1c[nH]c(=O)[nH]c1=O tgt="HT29 colon" test_value="> 100 µM"
compound_string=COC(=O)c1oc([N+](=O)[O-])c(-c2ccccc2)c1-c1ccccc1 tgt="HT29 colon" test_value="> 100 µM"
compound_string=Nc1nc(N)c2cc(Sc3ccc(Cl)cc3)ccc2n1 tgt="HT29 colon" test_value="2.4 µM"
compound_string=CC[C@H](C)[C@H](NC(=O)[C@H](Cc1ccc(O)cc1)NCC(F)(F)F)C(=O)OC(C)(C)C tgt="HT29 colon" test_value="16.3 µM"
compound_string=N=C(N)SCCSC(=N)N tgt="HT29 colon" test_value="> 100 µM"
compound_string=O=C(O)c1ccc(NCn2nc(-c3ccccc3O)oc2=S)cc1O tgt="HT29 colon" test_value="> 100 µM"

----------
# Tested on: HOP-92 NSCLC
# Procedure Summary: NCI tumour cell line growth inhibition, 48 h
Observed Property: TGI

compound=N[C@@H]1c2c(Br)sc(Br)c2C(=O)[C@H]1Br observed_property=TGI test_value="33 µM"
compound="c1ccc(C2C3=C(c4ccccc4CC3)N3c4cc5nc6ccccc6nc5cc4NC34CCCCC24)cc1 (stereo unspecified)" observed_property=TGI test_value="> 10 µM"
compound=O=C(Nn1c(-c2ccccc2)nc2ccccc2c1=O)c1ccc([N+](=O)[O-])cc1 observed_property=TGI test_value="> 100 µM"
compound=S=c1sc2sc(=S)sc2s1 observed_property=TGI test_value="> 100 µM"
compound=CCOC(=O)c1cc2c(OC)cc(OC)cc2oc1=O observed_property=TGI test_value="> 100 µM"
compound=CN1CCN(C(=O)OCc2nc3c(N4CCOCC4)nc(-c4ccccc4)nc3n2C)CC1 observed_property=TGI test_value="2.24 µM"
